- experiment notes: chemical genetic growth profiling, strain panel (AID 1159580);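 note: tested at 20 µM; growth read once vehicle control cultures reached saturation at 30 °C; lower values mean less growth of the strain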
- measurement conditions: S. cerevisiae deletion strains, growth OD, locus YLR357W, strain rsc2, stronger effect = lower value
About 2,000 (36%) of roughly 5,500 compounds were called active. Another 18% or so got no clear call; they are omitted. The list shows a part of the results.
Sorting guide: entries reporting normalized growth beneath 1 go in the yes pile, the rest go in the no pile.

Q: API: query returns whether the compound falls strictly under 1 in normalized growth. Query: O=c1c(O)c(-c2ccc(O)c(O)c2)oc2c(O)c(O)cc(O)c12
Ans: yes

Q: API: query returns whether the compound falls strictly under 1 in normalized growth. Query: CC[n+]1c(-c2ccccc2)c2cc(N)ccc2c2ccc(N)cc21
Ans: no

Q: API: query returns whether the compound falls strictly under 1 in normalized growth. Query: CC(C)c1c(O)ccc2c1CCC1[C@@](C)(CO)CCC[C@]21C (stereo not given in full)
Ans: no

Q: API: query returns whether the compound falls strictly under 1 in normalized growth. Query: CC(=O)Oc1ccc2c(c1C(C)C)CCC1C(C)(C)CCC[C@]21C (stereo not given in full)
Ans: no

Q: API: query returns whether the compound falls strictly under 1 in normalized growth. Query: CC(C1OC(C)(C)C(O)C1O)[C@@H]1CC[C@]2(C)C3=CCC4C(C)(C)C(=O)CC[C@]4(C)C3CC[C@@]12C (stereo not given in full)
Ans: yes

* * *

- experiment notes: chemical genetic growth profiling, strain panel (AID 1159580);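 note: tested at 20 µM; growth read once vehicle control cultures reached saturation at 30 °C; lower values mean less growth of the strain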
- measurement conditions: S. cerevisiae deletion strains, growth OD, locus YLR418C, strain cdc73
About 2,000 (36%) of roughly 5,500 compounds were called active. Not shown: some 18% with an inconclusive outcome. Rule as the data show it: active = normalized growth mostly below about 0.91 (no sharp cut-off); inconclusive = no clear call, values can overlap the other calls; inactive = mostly above about 0.92. The list shows a part of the results.
Write down the outcome that applies. Available outcomes: y for active, n for inactive

Q: Hi, sorry to bother you, what did the test record for COC(=O)c1c(C)cc(OC)cc1O ?
Ans: n

Q: Hi, sorry to bother you, what did the test record for O=c1c(O)c(-c2cc(O)c(O)c(O)c2)oc2cc(O)cc(O)c12 ?
Ans: n

Q: Hi, sorry to bother you, what did the test record for COc1ccc(-c2cc(=O)c3c(O)cc(O[C@H]4O[C@H](CO[C@@H]5O[C@@H](C)[C@H](O)[C@@H](O)[C@H]5O)[C@@H](O)[C@H](O)[C@H]4O)cc3o2)cc1 ?
Ans: n

Q: Hi, sorry to bother you, what did the test record for CCC(=O)c1c(O)cc(O)cc1O ?
Ans: n

Q: Hi, sorry to bother you, what did the test record for CCOC(=O)c1c(C)cc(O)cc1O ?
Ans: y

Q: Hi, sorry to bother you, what did the test record for CC(=O)[C@@]1(O)CCC2C3C[C@H](C)C4=CC(=O)C=CC4(C)[C@@]3(F)[C@@H](O)C[C@@]21C (some centres undefined) ?
Ans: n

Q: Hi, sorry to bother you, what did the test record for C[C@@H]1O[C@@H](OC[C@H]2OC(Oc3c(-c4ccc(OCCO)c(OCCO)c4)oc4cc(OCCO)cc(O)c4c3=O)[C@H](O)[C@@H](O)[C@@H]2O)[C@H](O)[C@H](O)[C@H]1O (some centres undefined) ?
Ans: n

Q: Hi, sorry to bother you, what did the test record for NC(=O)CN1CCCC1=O ?
Ans: n

Q: Hi, sorry to bother you, what did the test record for CCN(Cc1ccncc1)C(=O)C(CO)c1ccccc1 (centres undefined) ?
Ans: n
